Target: hSTING (Homo sapiens, UniProt Q86WV6, G230A/H232R/R293Q/R71H)
Sequence (Q86WV6 whole entry R71H/G230A/H232R/R293Q): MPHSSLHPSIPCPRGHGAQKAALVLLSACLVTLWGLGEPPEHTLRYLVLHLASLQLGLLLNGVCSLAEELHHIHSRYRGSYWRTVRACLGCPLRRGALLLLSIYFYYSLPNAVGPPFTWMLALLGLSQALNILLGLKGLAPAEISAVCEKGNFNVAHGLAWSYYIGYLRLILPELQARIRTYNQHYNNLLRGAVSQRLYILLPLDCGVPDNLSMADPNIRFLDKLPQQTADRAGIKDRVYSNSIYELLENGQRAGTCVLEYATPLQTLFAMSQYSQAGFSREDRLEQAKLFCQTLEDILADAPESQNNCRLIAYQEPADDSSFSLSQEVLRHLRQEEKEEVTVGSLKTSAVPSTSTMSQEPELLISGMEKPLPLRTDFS
Test: STING reporter assay (luciferase) in THP1-Dual KO-IFNAR2 cells stimulated with 2′3′cGAMP
Details: 15 μM 2′3′cGAMP transfected, 24 h, luciferase reporter activity
In this section we review reported EC50 values for a set of molecules.

Below are worked cases with known answers.
CC(C)(Oc1ccccc1)C(=O)Nc1c[nH]c2cc(F)c(F)cc12 ... 5000 to 100000 nM
CC(Oc1ccc(C(F)(F)F)cc1)C(=O)Nc1c[nH]c2cc(F)c(F)cc12 (stereo not shown) ... 1000 to 5000 nM
O=C(CCc1ncccn1)Nc1c[nH]c2ccc(-c3cnn(-c4ccc(C(F)(F)F)cc4)c3)cc12 ... 200 to 1000 nM

API: the following record is the query input.
Suppose we examine the molecule O=C(CS(=O)(=O)C1CC1)Nc1c[nH]c2ccc(-c3cnn(-c4ccc(C(F)(F)F)cc4)c3)cc12 ; what EC50 value has been reported?
200 to 1000 nM
